System: Plasmodium falciparum
Test: Antimalarial activity against chloroquine-sensitive Plasmodium falciparum FCR3 assessed as parasite growth inhibition and measured after 72 hrs by ELISA
Format: functional, organism-based
Settings: FCR3, 72 h
Endpoint name: IC50
# answer = value followed by unit

>>> measurement("COc1c2c(c(O)c3c(=O)c4cccc(O)c4oc13)-c1c(cc3cc(C)[nH]c(=O)c3c1O)C[C@H]2O")
"200 nM"

Now look at this one.
Entry C[C@@H]1CC[C@H]2[C@@H](C)C(=O)O[C@@H]3O[C@@]4(C)CC[C@@H]1[C@]32OO4 has what IC50? 20 nM

###

Experiment: Cytotoxicity against human MRC5 cells assessed as cell growth inhibition and measured after 2 days by WST-8 assay
Assay type: toxicity, cell-based
Endpoint name: IC50 at 2 days (µM)
State just the number; it will be interpreted in µM.

// worked examples, IC50 at 2 days included
>>> measurement("CCN(CC)CCCC(C)Nc1ccnc2cc(Cl)ccc12 (stereo not drawn)")
58.2
>>> measurement("C[C@@H]1CC[C@H]2[C@@H](C)C(=O)O[C@@H]3O[C@@]4(C)CC[C@@H]1[C@]32OO4")
50.3

Entry COc1c2c(c(O)c3c(=O)c4cccc(O)c4oc13)-c1c(cc3cc(C)[nH]c(=O)c3c1O)C[C@H]2O has what IC50 at 2 days? 0.17
